# System: S. aureus NCTC 4163
# ASSAY METHOD TEXT: MIC, twofold microdilution, standard strain
# Format: cell-based
# ASSAY SETUP: Staphylococcus aureus, NCTC4163, 18 h
Listed below: MIC values for each entry.

{"GIVEN SMILES": "O=C(O)c1cn(C2CC2)c2cc(N3CCN(C(=O)CCCCCCl)CC3)c(F)cc2c1=O", "MEASUREMENT UNIT": "µg/mL", "MIC": 0.2}
{"GIVEN SMILES": "O=C(O)c1cn(C2CC2)c2cc(N3CCN(C(=O)CCCBr)CC3)c(F)cc2c1=O", "MEASUREMENT UNIT": "µg/mL", "MIC": 0.2}
{"GIVEN SMILES": "O=C(O)c1cn(C2CC2)c2cc(N3CCN(C(=O)CBr)CC3)c(F)cc2c1=O", "MEASUREMENT UNIT": "µg/mL", "MIC": 0.2}
{"GIVEN SMILES": "O=C(O)c1cn(C2CC2)c2cc(N3CCN(C(=O)CCCCCl)CC3)c(F)cc2c1=O", "MEASUREMENT UNIT": "µg/mL", "MIC": 0.2}
{"GIVEN SMILES": "O=C(O)c1cn(C2CC2)c2cc(N3CCN(C(=O)CCC(F)(F)F)CC3)c(F)cc2c1=O", "MEASUREMENT UNIT": "µg/mL", "MIC": 0.2}
{"GIVEN SMILES": "O=C(O)c1cn(C2CC2)c2cc(N3CCN(C(=O)CCCCl)CC3)c(F)cc2c1=O", "MEASUREMENT UNIT": "µg/mL", "MIC": 0.2}

----------
# ASSAY METHOD TEXT: MTT assay, cytotoxic activity
# Format: cell-based
# ASSAY SETUP: human, HaCaT cells (immortal keratinocytes); MTT, 72 h, normal cell line; read-out: IC50 HaCaT
Quick reference: IC50 at 72 h of the listed items.
QUANTITY: IC50 at 72 h (µM)

{"COMPOUND": "O=C(O)c1cn(C2CC2)c2cc(N3CCN(C(=O)CCCC(F)(F)F)CC3)c(F)cc2c1=O [Compound 16]", "CENSORING SIGN": ">", "NUMERIC RESULT": 100}
{"COMPOUND": "O=C(O)c1cn(C2CC2)c2cc(N3CCN(C(=O)CCCCl)CC3)c(F)cc2c1=O [Compound 5]", "CENSORING SIGN": ">", "NUMERIC RESULT": 100}
{"COMPOUND": "O=C(O)c1cn(C2CC2)c2cc(N3CCN(CCCCCCCCCCC(=O)N4CCN(c5cc6c(cc5F)c(=O)c(C(=O)O)cn6C5CC5)CC4)CC3)c(F)cc2c1=O [Compound 21, CP–Undecanoyl–CP Dimer]", "CENSORING SIGN": "=", "NUMERIC RESULT": 73.2}
{"COMPOUND": "O=C(O)c1cn(C2CC2)c2cc(N3CCN(C(=O)C4CC4)CC3)c(F)cc2c1=O [Compound 2]", "CENSORING SIGN": "=", "NUMERIC RESULT": 75.7}
{"COMPOUND": "O=C(O)c1cn(C2CC2)c2cc(N3CCN(C(=O)CCCBr)CC3)c(F)cc2c1=O [Compound 10]", "CENSORING SIGN": "=", "NUMERIC RESULT": 89.1}
{"COMPOUND": "O=C(O)c1cn(C2CC2)c2cc(N3CCN(CC(=O)N4CCN(c5cc6c(cc5F)c(=O)c(C(=O)O)cn6C5CC5)CC4)CC3)c(F)cc2c1=O [Compound 17, CP–Acetyl–CP Dimer]", "CENSORING SIGN": "=", "NUMERIC RESULT": 41.3}

----------
# System: E. coli ATCC 25922
# ASSAY METHOD TEXT: MIC, twofold microdilution, standard strain
# Assay type: cell-based, Escherichia coli
# ASSAY SETUP: Escherichia coli, ATCC25922; standard strain, 18 h
Reported values of MIC for individual entries

{"GIVEN SMILES": "O=C(O)c1cn(C2CC2)c2cc(N3CCN(C(=O)CCCCCl)CC3)c(F)cc2c1=O", "MIC": "0.2 µg/mL"}
{"GIVEN SMILES": "O=C(O)c1cn(C2CC2)c2cc(N3CCN(C(=O)CCC(F)(F)F)CC3)c(F)cc2c1=O", "MIC": "1.6 µg/mL"}
{"GIVEN SMILES": "O=C(O)c1cn(C2CC2)c2cc(N3CCN(C(=O)CBr)CC3)c(F)cc2c1=O", "MIC": "0.2 µg/mL"}
{"GIVEN SMILES": "O=C(O)c1cn(C2CC2)c2cc(N3CCN(C(=O)CCBr)CC3)c(F)cc2c1=O", "MIC": "0.4 µg/mL"}
{"GIVEN SMILES": "O=C(O)c1cn(C2CC2)c2cc(N3CCN(C(=O)CC(F)(F)F)CC3)c(F)cc2c1=O", "MIC": "0.8 µg/mL"}
{"GIVEN SMILES": "O=C(O)c1cn(C2CC2)c2cc(N3CCN(CCCCCCCCCCC(=O)N4CCN(c5cc6c(cc5F)c(=O)c(C(=O)O)cn6C5CC5)CC4)CC3)c(F)cc2c1=O", "MIC": "25.6 µg/mL"}
{"GIVEN SMILES": "O=C(O)c1cn(C2CC2)c2cc(N3CCN(C(=O)CCCC(F)(F)F)CC3)c(F)cc2c1=O", "MIC": "1.6 µg/mL"}

----------
The following compounds are shown together with reported MIC values.
# System: S. epidermidis ATCC 12228
# ASSAY METHOD TEXT: MIC, twofold microdilution, standard strain
# Assay type: cell-based
# ASSAY SETUP: Staphylococcus epidermidis, ATCC12228, 18 h

{"GIVEN SMILES": "C=CC(=O)N1CCN(c2cc3c(cc2F)c(=O)c(C(=O)O)cn3C2CC2)CC1", "MIC (µg/mL)": 0.1}
{"GIVEN SMILES": "O=C(O)c1cn(C2CC2)c2cc(N3CCN(CCCCCC(=O)N4CCN(c5cc6c(cc5F)c(=O)c(C(=O)O)cn6C5CC5)CC4)CC3)c(F)cc2c1=O", "MIC (µg/mL)": 1.6}
{"GIVEN SMILES": "O=C(O)c1cn(C2CC2)c2cc(N3CCN(C(=O)CCCl)CC3)c(F)cc2c1=O", "MIC (µg/mL)": 0.2}
{"GIVEN SMILES": "O=C(O)c1cn(C2CC2)c2cc(N3CCN(C(=O)CBr)CC3)c(F)cc2c1=O", "MIC (µg/mL)": 0.2}

----------
# System: P. aeruginosa 37
# ASSAY METHOD TEXT: MIC, twofold microdilution, clinical strain
# Format: cell-based
# ASSAY SETUP: Pseudomonas aeruginosa, 18 h
Catalogue of MIC values
QUANTITY: MIC

{"MOLECULE": "O=C(O)c1cn(C2CC2)c2cc(N3CCN(C(=O)CC(F)(F)F)CC3)c(F)cc2c1=O [Compound 14]", "QUANTITY": "MIC", "RESULT": "> 25.6 µg/mL"}
{"MOLECULE": "O=C(O)c1cn(C2CC2)c2cc(N3CCN(C(=O)CCBr)CC3)c(F)cc2c1=O [Compound 9]", "QUANTITY": "MIC", "RESULT": "128 µg/mL"}
{"MOLECULE": "O=C(O)c1cn(C2CC2)c2cc(N3CCN(CC(=O)N4CCN(c5cc6c(cc5F)c(=O)c(C(=O)O)cn6C5CC5)CC4)CC3)c(F)cc2c1=O [Compound 17, CP–Acetyl–CP Dimer]", "QUANTITY": "MIC", "RESULT": "> 25.6 µg/mL"}
{"MOLECULE": "O=C(O)c1cn(C2CC2)c2cc(N3CCN(C(=O)CCCBr)CC3)c(F)cc2c1=O [Compound 10]", "QUANTITY": "MIC", "RESULT": "0.8 µg/mL"}
{"MOLECULE": "O=C(O)c1cn(C2CC2)c2cc(N3CCN(C(=O)CCCCCCCCCCBr)CC3)c(F)cc2c1=O [Compound 13]", "QUANTITY": "MIC", "RESULT": "> 25.6 µg/mL"}
{"MOLECULE": "O=C(O)c1cn(C2CC2)c2cc(N3CCN(C(=O)CCCl)CC3)c(F)cc2c1=O [Compound 4]", "QUANTITY": "MIC", "RESULT": "> 25.6 µg/mL"}
{"MOLECULE": "O=C(O)c1cn(C2CC2)c2cc(N3CCN(C(=O)CCC(F)(F)F)CC3)c(F)cc2c1=O [Compound 15]", "QUANTITY": "MIC", "RESULT": "> 25.6 µg/mL"}

----------
# Tested on: S. aureus 180
# ASSAY METHOD TEXT: MIC, twofold microdilution, clinical strain
# Type: cell-based
# ASSAY SETUP: Staphylococcus aureus, 18 h
We begin with a simple list: items and their reported MIC.

{"GIVEN SMILES": "O=C(O)c1cn(C2CC2)c2cc(N3CCN(C(=O)CCCCCBr)CC3)c(F)cc2c1=O", "TESTED SYSTEM": "S. aureus 180", "MIC": "0.5 µg/mL"}
{"GIVEN SMILES": "O=C(O)c1cn(C2CC2)c2cc(N3CCN(C(=O)CCBr)CC3)c(F)cc2c1=O", "TESTED SYSTEM": "S. aureus 180", "MIC": "0.5 µg/mL"}
{"GIVEN SMILES": "O=C(O)c1cn(C2CC2)c2cc(N3CCN(C(=O)CCCC(F)(F)F)CC3)c(F)cc2c1=O", "TESTED SYSTEM": "S. aureus 180", "MIC": "1 µg/mL"}
{"GIVEN SMILES": "O=C(O)c1cn(C2CC2)c2cc(N3CCN(CCCC(=O)N4CCN(c5cc6c(cc5F)c(=O)c(C(=O)O)cn6C5CC5)CC4)CC3)c(F)cc2c1=O", "TESTED SYSTEM": "S. aureus 180", "MIC": "6.4 µg/mL"}
{"GIVEN SMILES": "O=C(O)c1cn(C2CC2)c2cc(N3CCN(C(=O)CCCCCl)CC3)c(F)cc2c1=O", "TESTED SYSTEM": "S. aureus 180", "MIC": "0.1 µg/mL"}
{"GIVEN SMILES": "O=C(O)c1cn(C2CC2)c2cc(N3CCN(C(=O)CCC(F)(F)F)CC3)c(F)cc2c1=O", "TESTED SYSTEM": "S. aureus 180", "MIC": "0.5 µg/mL"}
{"GIVEN SMILES": "O=C(O)c1cn(C2CC2)c2cc(N3CCN(C(=O)CCCCCCCCCCBr)CC3)c(F)cc2c1=O", "TESTED SYSTEM": "S. aureus 180", "MIC": "> 25.6 µg/mL"}
